tested on: MS2 coat protein; assay: apparent KD of MS2 coat protein; designed switch direction (-1 OFF switch, 1 ON switch): -1; higher = weaker reporter binding; settings: Eterna round: R95; input ligand: none
Measured quantity: apparent KD of MS2 coat protein
Please state the value followed by its unit.

List apparent KD of MS2 coat protein for every entry below, keeping the order given.
1. CAUGAUCUUCGGAUCAUGGACAUGAGGAUCACCCAUGUCACGAGCAGAUCUUCAUGCAAGCUUUUUGCUCGUCUUAU [Sensor v3 - Turn-off variant 1 - 38] (puzzle: Sensor v3, turn-off variant 1)
2. UUUAAUUUUUUUUUUUUACAAGCUUUUUGCUCGUCUUAUACAUGAGGAUCACCCAUGUAAGUGGGAGAUAAAUUAUC [JMF 21] (puzzle: Sensor v3, turn-off variant 2)
3. AAAAUGUCAGGAUAUACGAAACAAAACAAAACAAAACAAAAGUAGAAGGGACAUGAGGAUCACCCAUGUAAGAA [Exclusion 4 #2] (puzzle: Exclusion 4)
4. AAAAAACAUGAGGAUCACCCAUGUCAGGAUAUCCGCGAAGGAAAGAAAAAAAAAAAAGGGAGAAGGGACAAAAA [April's Ex-date #4] (puzzle: Exclusion 1)

["0.0298 µM", "0.0904 µM", "0.0325 µM", "0.0285 µM"]

Entry source: the supplement of paper PMC9170038
